Where these numbers come from: ChEMBL document CHEMBL4033783

TEST NAME: Intrinsic clearance in Sprague-Dawley rat liver microsomes at […] after 2 mins in presence of NADPH by HPLC analysis
Assay type: ADME, Microsome
MEASUREMENT TYPE: intrinsic clearance (µL/min/mg)
Only the number, expressed in µL/min/mg, is required.

Given item `NC(=O)c1cnc(N[C@H]2CCCNC2)c2cc(-c3ccccc3)sc12` , the value recorded as its intrinsic clearance is 32

Given item `CN(c1ncc(C(N)=O)c2sc(-c3ccccc3)cc12)[C@H]1CCCNC1` , the value recorded as its intrinsic clearance is 37

---

pIC50: −log10 of the molar value.
Kindly state pIC50 for each of the entries shown.

Reading of pIC50 for NC(=O)c1cnc(N[C@H]2CNCC[C@@H]2O)c2cc(-c3ccccc3)sc12 (racemic) with Voltage-gated inwardly rectifying potassium channel KCNH2 (Homo sapiens): < 4.50

Reading of pIC50 for NC(=O)c1cnc(N[C@H]2CCCN[C@@H]2CCO)c2cc(-c3ccccc3)sc12 (racemic) with Voltage-gated inwardly rectifying potassium channel KCNH2 (Homo sapiens): < 4.50

Reading of pIC50 for `NC(=O)c1cnc(N[C@H]2CCCNC2)c2cc(-c3cccs3)sc12` with Voltage-gated inwardly rectifying potassium channel KCNH2 (Homo sapiens): < 4.52

Reading of pIC50 for `NC(=O)c1cnc(N(CCO)[C@H]2CCCNC2)c2cc(-c3ccccc3)sc12` with Voltage-gated inwardly rectifying potassium channel KCNH2 (Homo sapiens): < 4.50

Reading of pIC50 for `NC(=O)c1cnc(N[C@H]2CCCNC2)c2sc(-c3ccccc3)cc12` with Voltage-gated inwardly rectifying potassium channel KCNH2 (Homo sapiens): < 4.50

Reading of pIC50 for `C[C@H]1NCCC[C@@H]1Nc1ncc(C(N)=O)c2sc(-c3ccccc3)cc12` with Voltage-gated inwardly rectifying potassium channel KCNH2 (Homo sapiens): < 4.50
